assay notes: Pharmacokinetic study on rat
Assay type: in vivo, SD rats
condition info: male, Sprague-Dawley (SD), plasma, po, 5 mg/kg, p.o
observation type: AUC(0-t) (ng·h/mL)

| compound | observation type | reported |
| --- | --- | --- |
| C[C@@H](c1nc2ccc(C(=O)O)cc2n1C[C@@H]1CCO1)N1CCC(c2cccc(OCc3cc(F)ccc3F)n2)CC1 | AUC(0-t) | 21000 |

I. C[C@@H](c1nc2ccc(C(=O)O)nc2n1C[C@@H]1CCO1)N1CCN(c2cccc(OCc3ccc(Cl)cc3F)n2)CC1 [Example 52A]
II. C[C@@H](c1nc2ccc(C(=O)O)cc2n1C[C@@H]1CCO1)N1CCN(c2cccc(OCc3ccc(C#N)cc3F)n2)CC1 [Example 20A]
III. C[C@@H](c1nc2ccc(C(=O)O)nc2n1C[C@@H]1CCO1)N1CCC(c2cccc(OCc3ccc(Cl)cc3F)n2)CC1
IN: Ascending by AUC(0-t), please. Your task in answering is to list the labels in the requested order.
OUT: II, I, III

a. C[C@@H](c1nc2ccc(C(=O)O)cc2n1C[C@@H]1CCO1)N1CCC(c2cccc(OCc3ccc(C#N)cc3F)n2)CC1
b. C[C@@H](c1nc2ccc(C(=O)O)cc2n1C[C@@H]1CCO1)N1CCC(c2cccc(OCc3ccc(Cl)cc3F)n2)CC1
c. C[C@@H](c1nc2ccc(C(=O)O)nc2n1C[C@@H]1CCO1)N1CCN(c2cccc(OCc3ccc(C#N)cc3F)n2)CC1 [Example 51A]
IN: Put the items in sequence by AUC(0-t), from largest down. Your task in answering is to list the labels in the requested order.
OUT: b, a, c
(b: 5950 ng·h/mL, a: 3970 ng·h/mL, c: 1050 ng·h/mL)

* * *

assay notes: Pharmacokinetic study on rat
Assay type: in vivo, SD rats
condition info: male, Sprague-Dawley (SD), plasma, po, 5 mg/kg, p.o
observation type: Cmax (ng/mL)

Known results for compounds:
| compound | measurement unit | Cmax |
| --- | --- | --- |
| C[C@@H](c1nc2ccc(C(=O)O)cc2n1C[C@@H]1CCO1)N1CCN(c2cccc(OCc3ccc(C#N)cc3F)n2)CC1 [Example 20A] | ng/mL | 348 |
| C[C@@H](c1nc2ccc(C(=O)O)cc2n1C[C@@H]1CCO1)N1CCN(c2cc(C(F)(F)F)cc(OCc3ccc(C#N)cc3F)n2)CC1 | ng/mL | 1410 |
| C[C@@H](c1nc2ccc(C(=O)O)nc2n1C[C@@H]1CCO1)N1CCN(c2cccc(OCc3ccc(Cl)cc3F)n2)CC1 [Example 52A] | ng/mL | 1160 |
| C[C@@H](c1nc2ccc(C(=O)O)nc2n1C[C@@H]1CCO1)N1CCC(c2cccc(OCc3ccc(Cl)cc3F)n2)CC1 | ng/mL | 3780 |

1. C[C@@H](c1nc2ccc(C(=O)O)cc2n1C[C@@H]1CCO1)N1CCC(c2cccc(OCc3ccc(Cl)cc3F)n2)CC1
2. C[C@@H](c1nc2ccc(C(=O)O)cc2n1C[C@@H]1CCO1)N1CCC(c2cccc(OCc3cc(F)ccc3F)n2)CC1
3. C[C@@H](c1nc2ccc(C(=O)O)nc2n1C[C@@H]1CCO1)N1CCN(c2cccc(OCc3ccc(C#N)cc3F)n2)CC1 [Example 51A]
4. C[C@@H](c1nc2ccc(C(=O)O)cc2n1C[C@@H]1CCO1)N1CCC(c2cccc(OCc3ccc(C#N)cc3F)n2)CC1
IN: Ascending by Cmax, please. Your task in answering is to list the labels in the requested order.
OUT: 3, 1, 4, 2
(3: 323 ng/mL, 1: 747 ng/mL, 4: 1290 ng/mL, 2: 3470 ng/mL)
